Each entry below carries its reported Kd.
Molecular target: T1, AFP158/HLA-A*02:01 complex (human)
T1 construct: flowed as analyte in SPR
Assay: SPR, crude scFv captured, pMHC analyte;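 also: pMHC analyte injected at three concentrations, association phase of one hundred seconds, then running buffer for dissociation, rates fitted from both curves, KD derived from the rates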

The examples below pair each entry with its known result.
INSERT INTO results (binder, parameter, observed_value) VALUES
  ('AS170036 VL1VH1-57M108A (scFv, also called 28-AS170036 VL1VH1-57M108A) scFv: QSALTQPRSVSGSPGQSVTISCAGTSSDVGSENYVSWYQQHPGKAPKLMIYQVNKRASGVPDRFSGSKSGNTASLTISGLQAEDEADYYCASYRSSDHNIVFGGGTKLTVLGGGGSGGGGSGGGGSEVQLVESGGGLVQPGGSLRLSCAASGFTFSSYAMSWVRQAPGKGLEWVSTINSGTGMPYYADSVKGRFTISRDNSKNTLYLQMNSLRAEDTAVYYCAKNFFDGSWFLAPPAMDYWGQGTLVTVSSHHHHHH', 'Kd', '17 nM'),
  ('AS170036 VL1VH1-56N98I (scFv, also called 05-AS170036 VL1VH1-56N98I) scFv: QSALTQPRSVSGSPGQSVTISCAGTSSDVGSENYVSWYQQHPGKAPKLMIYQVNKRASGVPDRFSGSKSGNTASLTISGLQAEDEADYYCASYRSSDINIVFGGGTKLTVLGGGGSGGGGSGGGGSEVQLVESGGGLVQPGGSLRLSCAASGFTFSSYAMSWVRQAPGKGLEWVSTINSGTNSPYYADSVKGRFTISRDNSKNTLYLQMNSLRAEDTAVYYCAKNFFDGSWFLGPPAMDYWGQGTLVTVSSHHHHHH', 'Kd', '21 nM');

Request: Return Kd for the following binder: AS170036 VL1VH1-57H108A (scFv, also called 22-AS170036 VL1VH1-57H108A) scFv: QSALTQPRSVSGSPGQSVTISCAGTSSDVGSENYVSWYQQHPGKAPKLMIYQVNKRASGVPDRFSGSKSGNTASLTISGLQAEDEADYYCASYRSSDHNIVFGGGTKLTVLGGGGSGGGGSGGGGSEVQLVESGGGLVQPGGSLRLSCAASGFTFSSYAMSWVRQAPGKGLEWVSTINSGTGHPYYADSVKGRFTISRDNSKNTLYLQMNSLRAEDTAVYYCAKNFFDGSWFLAPPAMDYWGQGTLVTVSSHHHHHH
Result: 6.9 nM
